Property: Post-emergence % control (100 PPM) SETIT; scope: individual compounds
test system: Setaria italica (SETIT); assay: Post-emergence herbicidal activity, spray at 100 ppm; type: in vivo; conditions: % visual injury compared to treatment control 7 days after treatment

- COMPOUND: "C#CCN1C(=O)C(F)(F)Oc2cc(F)c(-c3c(F)cc(F)c(F)c3F)cc21 [Compound 37]"
  Post-emergence % control (100 PPM) SETIT (%): 58
- COMPOUND: "C#CCN1C(=O)COc2cc(F)c(-c3c(F)cc(F)c(F)c3F)cc21 [Compound 52]"
  Post-emergence % control (100 PPM) SETIT (%): 72
- COMPOUND: "C#CCN1C(=O)COc2cc(F)c(-c3ccc(Cl)c(Cl)c3Cl)cc21 [Compound 920-6, reference compound]"
  Post-emergence % control (100 PPM) SETIT (%): 18
- COMPOUND: "C#CCN1C(=O)COc2cc(F)c(-c3c(Cl)cc(C(F)(F)F)cc3Cl)cc21 [Compound 920-4, reference compound]"
  Post-emergence % control (100 PPM) SETIT (%): 38
- COMPOUND: "C#CCN1C(=O)C(F)(F)Oc2cc(F)c(-c3c(F)c(F)c(F)c(F)c3F)cc21 [Compound 2]"
  Post-emergence % control (100 PPM) SETIT (%): 58
